Origin of measurements: patent US5024994A

# assay target: renin (Homo sapiens, UniProt P00797)
# Sequence (P00797 67-406): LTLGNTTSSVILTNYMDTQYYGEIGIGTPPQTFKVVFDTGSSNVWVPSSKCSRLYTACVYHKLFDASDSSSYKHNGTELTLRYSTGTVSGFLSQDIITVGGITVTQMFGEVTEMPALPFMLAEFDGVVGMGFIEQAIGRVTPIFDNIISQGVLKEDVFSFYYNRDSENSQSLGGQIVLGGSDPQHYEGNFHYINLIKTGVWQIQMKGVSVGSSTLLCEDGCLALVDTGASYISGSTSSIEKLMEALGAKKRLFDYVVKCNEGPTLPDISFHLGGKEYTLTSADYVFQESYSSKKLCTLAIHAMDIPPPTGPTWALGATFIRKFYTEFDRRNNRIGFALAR
# procedure text: in vitro renin inhibitory activity, radioimmunoassay for angiotensin I
# Assay type: biochemical
# cond: read-out: IC50
# Method: The effectiveness of the aforementioned compounds is determined by a test for in vitro renin inhibitory activity. This activity is determined by a standard radioimmunoassay for angiotensin I. In this assay the enzyme, renin, incubated for two hours at 37° in the presence of a substrate, angiotensinogen, generates the product, angiotensin I. Test compounds are added to the incubation mixture.
pIC50: −log10 of the molar value.
# cutoff 7 applies to pIC50; >= gives class 1, < gives class 0

# compound, label value
data = [
    ("CC[C@H](C)CNC(=O)C[C@H](O)[C@H](CC(C)C)NC(=O)C(CCCCCCNC(N)=NC#N)NC(=O)C(Cc1cccc2ccccc12)Cc1cccc2ccccc12 (stereo partly shown)", "class 1"),
    ("CCC(C)CNC(=O)C[C@H](O)[C@H](CC(C)C)NC(=O)C(CCCCCNC(=O)OCc1ccccc1)NC(=O)C(Cc1cccc2ccccc12)Cc1cccc2ccccc12 (stereo partly shown)", "class 0"),
    ("CC[C@H](C)CNC(=O)C[C@H](O)[C@H](CC(C)C)NC(=O)C(NC(=O)C(Cc1cccc2ccccc12)Cc1cccc2ccccc12)C(=O)N(C)C (stereo partly shown)", "class 0"),
    ("CC[C@H](C)CNC(=O)C[C@H](O)[C@H](CC(C)C)NC(=O)C(CC#N)NC(=O)[C@H](Cc1ccccc1)NC(=O)CC(C)C (stereo partly shown)", "class 0"),
    ("CCCCNC(=S)NCCCC[C@H](NC(=O)C(Cc1cccc2ccccc12)Cc1cccc2ccccc12)C(=O)N[C@@H](CC(C)C)[C@@H](O)CC(=O)NCC(C)CC (stereo partly shown)", "class 1"),
    ("CC[C@H](C)CNC(=O)C[C@H](O)[C@@H](NC(=O)[C@H](CCCCNC(=S)NC)NC(=O)C(Cc1cccc2ccccc12)Cc1cccc2ccccc12)C1CCCCC1", "class 1"),
]
